Measured logP, listed per entry for reference.
# TEST SUMMARY: Potentiometric
# Type: physicochemical
# EXPERIMENTAL CONDITIONS: 1-octanol/water biphasic system, log P (mean ± SEM), octanol / ISA water, neutral species, 25.0 ± 0.5 °C, 150 mM KCl, mean ± SEM of at least three independent replicates
MEASURED ATTRIBUTE: logP

COMPOUND	READOUT NUMBER
O=C(Nc1ccncc1)c1c(Cl)cccc1Cl [SM16, c1cc(c(c(c1)Cl)C(=O)Nc2ccncc2)Cl]	2.62
Clc1cccc(Nc2ncnc3ccccc23)c1 [SM12, c1ccc2c(c1)c(ncn2)Nc3cccc(c3)Cl.Cl]	3.83
COc1cc2ncnc(Nc3cccc(C)c3)c2cc1OC [SM13, Cc1cccc(c1)Nc2c3cc(c(cc3ncn2)OC)OC]	2.92
Clc1ccc(CNc2ncnc3ccccc23)cc1 [SM04, c1ccc2c(c1)c(ncn2)NCc3ccc(cc3)Cl]	3.98
Nc1ncnc2c1cnn2-c1ccccc1 [SM11, c1ccc(cc1)n2c3c(cn2)c(ncn3)N]	2.1
Oc1ccc(-n2cnc3ccccc32)cc1 [SM15, c1ccc2c(c1)ncn2c3ccc(cc3)O]	3.07
Cc1ccc2[nH]c(=O)c(CC(=O)O)c(-c3ccccc3)c2c1 [SM08]	3.1
Nc1ccc2c(c1)ncn2-c1ccccc1 [SM14, c1ccc(cc1)n2cnc3c2ccc(c3)N]	1.95
COc1cccc(Nc2ncnc3ccccc23)c1 [SM09, COc1cccc(c1)Nc2c3ccccc3ncn2.Cl]	3.03
FC(F)(F)c1cccc(Nc2ncnc3ccccc23)c1 [SM02, c1ccc2c(c1)c(ncn2)Nc3cccc(c3)C(F)(F)F]	4.09

Taken from paper PMC7301889.
